All figures here come from patent US5185363A.

- TARGET_OR_TEST_SYSTEM: 5-Lipoxygenase from RBL-1 20,000 xg Supernatant (Rattus norvegicus)
- Construct: supermatant from 1.5 million homogenized RBL-1 cells; endogenous in cells; host or cells: RBL-1 cells, 20,000 x g supernatant of homogenate
- TEST_PROTOCOL: In vitro inhibition of 5-lipoxygenase from RBL-1 20,000 xg supernatant
- Format: biochemical
- MEASUREMENT_SETUP: radiolabeled arachidonic acid
pIC50: −log10 of the molar value.
Assign YES whenever pIC50 does not fall below 6; assign NO whenever it does.

Examples from the recorded data:
>>> qualitative_label("CNC(=O)N(O)C(C)c1ccc(OC)cc1 (stereo not drawn)")
"NO"
>>> qualitative_label("NC(=O)N(O)Cc1ccc(-c2ccccc2)s1")
"YES"
>>> qualitative_label("COc1ccc(C(C)N(O)C(N)=O)cc1 (stereo not drawn)")
"NO"
>>> qualitative_label("CC(C)(C)Sc1ccsc1CN(O)C(N)=O")
"NO"

// query Is reported pIC50 greater than or equal to 6 here: CC(c1ccc(-c2ccccc2)s1)N(O)C(N)=O (stereo not drawn)
// result YES

// query Is reported pIC50 greater than or equal to 6 here: CC(c1ccc(OCCc2ccccc2)cc1)N(O)C(N)=O (stereo not drawn)
// result YES

// query Is reported pIC50 greater than or equal to 6 here: NC(=O)N(O)Cc1sccc1Sc1ccc(O)cc1
// result YES

###

- TARGET_OR_TEST_SYSTEM: 5-Lipoxygenase from RBL-1 20,000 xg Supernatant (Rattus norvegicus)
- Construct: supermatant from 1.5 million homogenized RBL-1 cells; endogenous in cells; host or cells: RBL-1 cells, 20,000 x g supernatant of homogenate
- Sequence (P12527 1-673): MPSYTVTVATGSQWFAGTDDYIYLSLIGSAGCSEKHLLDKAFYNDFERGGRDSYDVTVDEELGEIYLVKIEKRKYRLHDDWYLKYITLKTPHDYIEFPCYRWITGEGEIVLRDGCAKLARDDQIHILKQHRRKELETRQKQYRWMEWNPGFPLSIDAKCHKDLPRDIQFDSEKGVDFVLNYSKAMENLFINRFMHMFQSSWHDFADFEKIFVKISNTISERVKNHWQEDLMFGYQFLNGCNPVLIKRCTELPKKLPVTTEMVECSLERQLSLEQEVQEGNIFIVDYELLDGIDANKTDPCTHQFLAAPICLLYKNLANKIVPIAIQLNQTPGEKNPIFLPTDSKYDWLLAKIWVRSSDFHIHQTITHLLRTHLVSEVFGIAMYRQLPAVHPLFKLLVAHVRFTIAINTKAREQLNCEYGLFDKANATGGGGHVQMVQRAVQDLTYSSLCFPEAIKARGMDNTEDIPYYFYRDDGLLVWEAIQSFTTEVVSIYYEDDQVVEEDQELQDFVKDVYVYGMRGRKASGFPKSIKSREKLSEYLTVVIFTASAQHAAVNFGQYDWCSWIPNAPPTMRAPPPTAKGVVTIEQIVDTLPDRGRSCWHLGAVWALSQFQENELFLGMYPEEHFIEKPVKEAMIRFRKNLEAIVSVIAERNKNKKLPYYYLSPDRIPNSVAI
- TEST_PROTOCOL: In vitro inhibition of 5-lipoxygenase from RBL-1 20,000 xg supernatant
- Format: biochemical
- MEASUREMENT_SETUP: radiolabeled arachidonic acid
EXPERIMENTAL_ENDPOINT: IC50 (nM)
Give bare numbers, in nM.

Each molecule below has a recorded value; state its IC50.
1. CC(c1cc(Br)cs1)N(O)C(N)=O (centres unmarked)
2. NC(=O)N(O)Cc1cc(Br)cs1
3. NC(=O)N(O)Cc1ccc(Sc2ccccc2)s1
4. NC(=O)N(O)Cc1sccc1Sc1ccccn1
5. NC(=O)N(O)Cc1ccsc1 [Example 44, N-Hydroxy-N-(thien-3-yl)methyl urea]

// result
900
2500
200
1500
4900

###

- TARGET_OR_TEST_SYSTEM: 5-Lipoxygenase from RBL-1 20,000 xg Supernatant (Rattus norvegicus, UniProt P12527)
- Construct: supermatant from 1.5 million homogenized RBL-1 cells; endogenous in cells
- Sequence (P12527 1-673): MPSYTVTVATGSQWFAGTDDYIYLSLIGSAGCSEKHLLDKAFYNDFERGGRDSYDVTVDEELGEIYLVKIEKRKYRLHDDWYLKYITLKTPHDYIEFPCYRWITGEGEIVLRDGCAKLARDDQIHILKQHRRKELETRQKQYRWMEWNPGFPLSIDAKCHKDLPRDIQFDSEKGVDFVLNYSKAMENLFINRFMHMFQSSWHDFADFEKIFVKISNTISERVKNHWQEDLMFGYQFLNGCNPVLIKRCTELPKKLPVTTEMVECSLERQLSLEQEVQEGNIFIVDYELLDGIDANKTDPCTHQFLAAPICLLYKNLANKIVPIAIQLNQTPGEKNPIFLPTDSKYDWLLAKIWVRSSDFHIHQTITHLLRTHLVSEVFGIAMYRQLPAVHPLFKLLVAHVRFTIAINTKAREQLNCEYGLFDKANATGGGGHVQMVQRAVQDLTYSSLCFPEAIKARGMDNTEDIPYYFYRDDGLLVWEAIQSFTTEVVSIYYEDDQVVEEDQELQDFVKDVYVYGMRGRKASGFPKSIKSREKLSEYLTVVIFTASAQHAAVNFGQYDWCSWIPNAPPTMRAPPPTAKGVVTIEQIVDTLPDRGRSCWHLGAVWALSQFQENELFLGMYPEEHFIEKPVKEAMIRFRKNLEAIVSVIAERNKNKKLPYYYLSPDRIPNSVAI
- TEST_PROTOCOL: In vitro inhibition of 5-lipoxygenase from RBL-1 20,000 xg supernatant
- MEASUREMENT_SETUP: radiolabeled arachidonic acid
EXPERIMENTAL_ENDPOINT: pIC50
Numbers only, as −log10 of the molar value.

Each compound below has a recorded value; state its pIC50.
1. Cc1ccc(C(C)N(O)C(N)=O)s1 (centres unmarked) [Example 12]
2. NC(=O)N(O)Cc1ccc(Br)cc1 [Example 100, N-Hydroxy-N-4-bromobenzylurea]
3. CCOC(=O)CNC(=O)N(O)C(C)c1ccsc1 (centres unmarked) [Example 62]

// result
[6.28, 6.10, 5.38]

Each compound below has a recorded value; state its pIC50.
1. NC(=O)N(O)Cc1ccc(Oc2ccccc2)s1 [Example 155]
2. CNC(=O)N(O)Cc1ccc(Br)cc1 [Example 101, N-Hydroxy-N-4-bromobenzyl-N'-methyl urea]
3. CC(C)(C)c1ccc(Sc2ccsc2CN(O)C(N)=O)cc1 [Example 144]
4. CC(c1ccsc1)N(O)C(N)=O (centres unmarked) [Example 43, N-Hydroxy-N-1-(thien-3-yl)ethyl urea]
5. Cc1cc(C(C)N(O)C(=O)NCCO)c(C)s1 (centres unmarked) [Example 60]
6. CNC(=O)N(O)Cc1ccc(-c2ccccc2)s1 [Example 54]
7. NC(=O)N(O)CCCc1ccsc1 [Example 69]

// result
6.15
6.52
6.70
5.46
5.46
6.51
5.82

Each compound below has a recorded value; state its pIC50.
1. CNC(=O)N(O)C(C)c1ccc(F)cc1 (centres unmarked) [Example 110]
2. CNC(=O)N(O)C(C)c1ccc(Br)cc1 (centres unmarked) [Example 98]
3. NC(=O)N(O)Cc1sccc1Sc1ccc(Cl)cc1 [Example 142]
4. CC(c1cccs1)N(O)C(N)=O (centres unmarked) [Example 47, N-hydroxy-N-(1-thien-2-yl)ethyl urea]
5. NC(=O)N(O)Cc1cc(Oc2ccccc2)cs1 [Example 157]
6. CC(C)(C)Sc1ccc(CN(O)C(N)=O)s1 [Example 148]
7. NC(=O)N(O)Cc1sccc1Oc1ccccc1 [Example 156]

// result
1. 5.64
2. 5.96
3. 6.52
4. 5.43
5. 6.30
6. 6.52
7. 6.00

Each compound below has a recorded value; state its pIC50.
1. NC(=O)N(O)Cc1sccc1Sc1ccc(F)cc1 [Example 143]
2. CC(c1ccc(F)c(Br)c1)N(O)C(N)=O (centres unmarked) [Example 122]
3. CC(c1ccc(Cl)cc1)N(O)C(N)=O (centres unmarked) [Example 107]

// result
1. 6.52
2. 6.10
3. 6.22

###

Please go through the items and note down their IC50.
- TARGET_OR_TEST_SYSTEM: 5-Lipoxygenase from RBL-1 20,000 xg Supernatant (Rattus norvegicus, UniProt P12527)
- Construct: supermatant from 1.5 million homogenized RBL-1 cells; endogenous in cells
- TEST_PROTOCOL: In vitro inhibition of 5-lipoxygenase from RBL-1 20,000 xg supernatant
- MEASUREMENT_SETUP: radiolabeled arachidonic acid
Express your answer as a number followed by its unit.

These recorded examples may help you get a feel for the data.
>>> result("NC(=O)N(O)Cc1sccc1SCc1ccco1 [Example 146]")
"700 nM"
>>> result("CCCCOc1ccc(C(C)N(O)C(N)=O)cc1 (centres unmarked) [Example 11]")
"1100 nM"
>>> result("NC(=O)N(O)Cc1ccc(OCc2ccccc2)cc1 [Example 5]")
"610 nM"

Each compound below has a recorded value; state its IC50.
1. NC(=O)N(O)Cc1ccc(Br)s1 [Example 130]
2. CNC(=O)N(O)C(C)c1ccc(C)c(Br)c1 (centres unmarked) [Example 115]
3. Cc1ccc(CN(O)C(N)=O)s1 [Example 51]

// result
900 nM
600 nM
200 nM
